The reader will find reported pKd values listed item by item below.
Target: T1, recombinant soluble human CEA (extracellular domain, AA 1-687 of huCEA, C-terminal 6xHis) (human, UniProt P06731 35-687)
T1 construct: also called sCEA; soluble CEA
T1 sequence: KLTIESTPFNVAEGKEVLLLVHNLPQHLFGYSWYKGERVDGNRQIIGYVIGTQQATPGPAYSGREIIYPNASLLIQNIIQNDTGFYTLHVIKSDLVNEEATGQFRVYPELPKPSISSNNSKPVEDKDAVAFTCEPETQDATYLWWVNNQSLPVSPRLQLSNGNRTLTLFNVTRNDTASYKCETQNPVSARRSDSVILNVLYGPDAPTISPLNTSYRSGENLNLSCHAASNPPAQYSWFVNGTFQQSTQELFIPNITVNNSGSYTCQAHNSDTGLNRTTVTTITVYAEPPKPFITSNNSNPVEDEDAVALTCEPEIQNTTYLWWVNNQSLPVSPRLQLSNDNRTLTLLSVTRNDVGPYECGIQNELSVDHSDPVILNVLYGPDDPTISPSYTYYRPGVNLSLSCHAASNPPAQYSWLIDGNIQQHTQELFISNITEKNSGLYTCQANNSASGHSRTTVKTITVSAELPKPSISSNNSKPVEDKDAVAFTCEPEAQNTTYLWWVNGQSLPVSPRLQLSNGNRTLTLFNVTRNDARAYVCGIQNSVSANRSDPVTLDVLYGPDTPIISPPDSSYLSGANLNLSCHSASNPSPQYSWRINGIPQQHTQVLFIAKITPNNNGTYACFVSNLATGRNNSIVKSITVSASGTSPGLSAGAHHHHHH
Experiment: SPR; kinetics on huCEA, IgG format
pKd: −log10 of the molar value.
MEASUREMENT_KIND: pKd

binder="BGA6710 (antibody, human IgG1, V domains shown, BGA2433 with W33Y (VH) and T51Y (VL); wild-type human IgG1 format) VH: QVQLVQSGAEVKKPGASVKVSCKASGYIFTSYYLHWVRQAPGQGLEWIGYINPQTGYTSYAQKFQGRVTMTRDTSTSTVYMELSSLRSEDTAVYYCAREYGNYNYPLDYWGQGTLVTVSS VL: DIQMTQSPSSLSASVGDRVTITCRASENQYGYLAWYQQKPGKVPKLLIYNYKNLVEGVPSRFSGSGSGTDFTLTISSLQPEDVATYYCQHHLGTPYTFGQGTKVEIK" observed_value=8.83
binder="BGA6710 variant Q54E, Y57K (antibody, V domains shown, IgG format; both changes in the heavy chain) VH: QVQLVQSGAEVKKPGASVKVSCKASGYIFTSYYLHWVRQAPGQGLEWIGYINPETGKTSYAQKFQGRVTMTRDTSTSTVYMELSSLRSEDTAVYYCAREYGNYNYPLDYWGQGTLVTVSS VL: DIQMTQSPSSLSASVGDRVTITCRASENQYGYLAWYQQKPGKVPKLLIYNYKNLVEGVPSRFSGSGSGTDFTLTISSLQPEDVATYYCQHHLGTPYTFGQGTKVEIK" observed_value=8.63
